Target: T1, CAPRIN-1 protein expressed on the membrane surface of human cancer cells (human, UniProt Q14444 2-709)
T1 sequence (looked up): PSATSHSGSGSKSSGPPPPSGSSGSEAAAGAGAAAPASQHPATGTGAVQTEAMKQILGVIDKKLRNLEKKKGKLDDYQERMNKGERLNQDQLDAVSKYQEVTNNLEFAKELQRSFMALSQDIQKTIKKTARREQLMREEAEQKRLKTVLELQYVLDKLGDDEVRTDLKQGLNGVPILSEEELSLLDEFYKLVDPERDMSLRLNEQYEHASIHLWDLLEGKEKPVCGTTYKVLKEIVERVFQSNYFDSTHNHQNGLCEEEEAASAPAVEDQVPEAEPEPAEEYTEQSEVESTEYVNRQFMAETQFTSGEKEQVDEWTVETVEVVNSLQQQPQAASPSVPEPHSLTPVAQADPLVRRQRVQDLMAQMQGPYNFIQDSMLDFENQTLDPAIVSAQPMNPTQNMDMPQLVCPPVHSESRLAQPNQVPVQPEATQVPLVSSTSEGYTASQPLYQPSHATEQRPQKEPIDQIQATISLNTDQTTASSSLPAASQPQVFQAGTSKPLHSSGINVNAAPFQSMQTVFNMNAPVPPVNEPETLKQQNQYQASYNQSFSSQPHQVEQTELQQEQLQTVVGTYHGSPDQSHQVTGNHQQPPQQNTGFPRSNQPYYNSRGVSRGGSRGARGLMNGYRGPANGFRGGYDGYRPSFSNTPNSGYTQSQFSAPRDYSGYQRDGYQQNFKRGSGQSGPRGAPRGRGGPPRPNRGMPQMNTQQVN
Experiment: cell-based or functional assay
recorded-endpoint: ADCC cytotoxic activity (51Cr release) on RD-ES

1) humanized antibody #2 (antibody, V domains shown) VH: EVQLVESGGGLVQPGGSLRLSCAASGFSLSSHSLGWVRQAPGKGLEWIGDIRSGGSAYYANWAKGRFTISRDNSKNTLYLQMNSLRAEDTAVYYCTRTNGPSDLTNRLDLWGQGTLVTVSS VL: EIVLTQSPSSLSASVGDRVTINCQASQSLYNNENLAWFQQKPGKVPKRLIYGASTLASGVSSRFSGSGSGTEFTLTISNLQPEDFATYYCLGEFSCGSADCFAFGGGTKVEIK : ≥ 40%
2) humanized antibody #1 (antibody, V domains shown) VH: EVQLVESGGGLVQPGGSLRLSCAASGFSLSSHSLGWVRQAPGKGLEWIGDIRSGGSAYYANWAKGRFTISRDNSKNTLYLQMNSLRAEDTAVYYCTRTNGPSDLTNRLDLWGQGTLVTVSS VL: AIQMTQSPSSLSASVGDRVTINCQASQSLYNNENLAWFQQKPGKAPKRLIYGASTLASGVSSRFSGSGSGTDFTLTISSLQPEDFAIYYCLGEFSCGSADCFAFGGGTKVEIK : ≥ 31%
3) humanized antibody #6 (antibody, V domains shown) VH: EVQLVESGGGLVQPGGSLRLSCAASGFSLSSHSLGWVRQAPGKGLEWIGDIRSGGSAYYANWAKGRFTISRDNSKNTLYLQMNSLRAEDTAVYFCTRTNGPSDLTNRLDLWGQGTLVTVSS VL: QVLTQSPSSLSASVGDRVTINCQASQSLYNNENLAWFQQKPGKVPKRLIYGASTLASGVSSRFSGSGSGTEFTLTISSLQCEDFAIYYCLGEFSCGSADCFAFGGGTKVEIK : ≥ 48%
